Source: PubChem BioAssay (NCI)

Recorded growth values for a group of compounds are listed next.
- Test system: HOP-62 NSCLC
- assay-protocol: NCI-60 one-dose screen, 48 h (100 = growth as untreated, 0 = no growth, -100 = all killed)
- condition-notes: 10 µM
- Method: Growth inhibition of the HOP-62 human Non-Small Cell Lung tumor cell line is measured as a screen for anti-cancer activity. Cells are grown in 96 well plates and exposed to the test compound for 48 hours. Compounds are tested at a single concentration, which is 10^-5 M for most compounds. The reported endpoint is percent growth (GI% or GIPRCNT), where numbers from 0 - 100% represent growth inhibition, and numbers from -100% - 0 represent cell death. […]
The panel holds about 83,000 compounds, 20% with a hit somewhere; the sample as a whole holds those more often.
The response must be a number in % with no trailing unit.

For orientation, consider the following solved cases.
| compound | tested-on | quantity-unit | numeric-readout |
| --- | --- | --- | --- |
| Cc1ccc(Cl)cc1NC(=O)CCl | HOP-62 NSCLC | % | 108 |
| COc1cc(-c2nn(-c3cccc(NC(=O)CCN4CCN(Cc5ccccc5)CC4)c3)cc2-c2ccncc2)ccc1Cl | HOP-62 NSCLC | % | 24 |
| CCN(CC)CCNc1ccc(C)c2sc3cc(Cl)ccc3c(=O)c12 | HOP-62 NSCLC | % | 66.9 |
| Clc1ccc(C2=NN=C3C(Cc4ccccc4)=Nc4ccccc4N3C2)cc1 | HOP-62 NSCLC | % | 83.3 |

Challenge: Any idea what its growth is? The compound is `COc1cc(-c2nn(-c3cccc(NC(=O)NCCNC(=O)c4cccc(C(F)(F)F)c4)c3)cc2-c2ccncc2)ccc1Cl`
Response given: 59.6

Challenge: For `CCN(CC)CCN1c2nc3ccccc3cc2Sc2cc3ccccc3nc21` , what is its reported growth?
Response given: 12.8

Challenge: Sample `O[C@@H]1CO[C@H]2[C@@H]1OC[C@@H]2O` — what was its growth?
Response given: 107

Challenge: Need growth, item `O=[N+]([O-])c1ccc(NCSc2ccc(Cl)cc2)cc1`
Response given: 109

Challenge: // lookup growth for `O=C(CNc1nnc(-c2cccnc2SCc2ccccc2)s1)Nc1nc(Cl)cc(Cl)n1`
Response given: 95.4

Challenge: Would you mind telling me what growth value was observed for `Nc1ccc(CC[C@H]2CCC/C=C/[C@@H]3C[C@H](O)C[C@H]3[C@H](O)/C=C/C(=O)O2)cc1` ?
Response given: 14.2

Challenge: GET /values?readout=growth&item= COc1ccc(NC(=O)C2CC3C=CC2C3)c([N+](=O)[O-])c1 (centres undefined)
Response given: 100

Challenge: I have this compound here, `CC(=O)COc1ccc(Cl)cc1Cl` , and I need its recorded growth.
Response given: 110

* * *

- Tested on: A549/ATCC NSCLC
- assay-protocol: NCI-60 one-dose screen, 48 h (100 = growth as untreated, 0 = no growth, -100 = all killed)
- condition-notes: 10 µM
About 83,000 compounds went through this panel and 20% of them were active in at least one assay; those are over-represented in the sample as a whole.
# growth listing for each entry below
Quick note: give the figure in %, leave out the unit.

# annotated cases, reported growth shown
| structure | tested-on | growth / % |
| --- | --- | --- |
| O=C(CCNC(=O)c1nc(-c2ccccc2)n(-c2ccc(Cl)cc2)n1)NO | A549/ATCC NSCLC | 88.6 |
| CCOC(=O)c1cc(C(=O)c2cc(OC)cc(OC)c2)n2nc(C)ccc12 | A549/ATCC NSCLC | 26.9 |
| Cc1cc(SCc2ccccc2)nc(N)n1 | A549/ATCC NSCLC | 105 |
| CN1CCN(c2cc3c(cc2F)c(=O)c(C(=O)O)cn3-c2ccc(F)cc2)CC1 | A549/ATCC NSCLC | 102 |

Continue with the next compound.
Challenge: Entry under review: `C/C(=N\O)c1ccc(NC(=O)CSc2nnc(-c3ccccc3)n2-c2ccccc2)cc1` . Reported growth?
Response given: 81.9
